molecular target: CDK2 (Homo sapiens); construct: purchased Carna Company; assay: CDK enzymology experiment in vitro, capillary mobility shift assay (MSA); assay type: biochemical; conditions: read-out: CDK2 (nM) inhibitory IC50
readoutLabel: IC50

Using the record for Cn1cc(S(=O)(=O)N2CCC(Nc3ncc(C#N)c(O[C@H]4CCC[C@@H]4O)n3)CC2)cn1 (single isomer, unassigned) [Compound 66] , report its IC50.
2.5 to 10 nM

Using the record for Cn1cc(-c2ccc(S(=O)(=O)N3CCC(Nc4ncc(C#N)c(N[C@H]5CCC[C@@H]5O)n4)CC3)cc2)cn1 [Compound 59] , report its IC50.
2.5 to 10 nM

Using the record for Cn1cc(S(=O)(=O)N2CCC(Nc3ncc(C#N)c(N[C@H]4C[C@@H](O)C4)n3)CC2)cn1 [Compound 77] , report its IC50.
2.5 to 10 nM

Dear colleague, could you please provide IC50 for the compounds listed below?
1. O=S(=O)(c1ccc([C@@H]2CCCNC2)cc1)N1CCC(Nc2ncc(C(F)(F)F)c(O[C@H]3CCOC3)n2)CC1 (single isomer, unassigned) [Example 114]
2. O=S(=O)(c1ccc(N2CC3CNCC3C2)nc1)N1CCC(Nc2ncc(C(F)(F)F)c(O[C@H]3CCOC3)n2)CC1 (stereo partly drawn) [Compound 190]
3. O=S(=O)(c1ccc(N2CCNC(C(F)(F)F)C2)nc1)N1CCC(Nc2ncc(C(F)(F)F)c(O[C@H]3CCOC3)n2)CC1 (stereo partly drawn) [Compound 167]

< 0.5 nM
< 0.5 nM
0.5 to 2.5 nM

###

target: CDK2 (Homo sapiens); construct: purchased Carna Company; test: CDK enzymology experiment in vitro, capillary mobility shift assay (MSA); assay type: biochemical; conditions: read-out: CDK2 (nM) inhibitory IC50
Please respond with reported IC50 for every item in the list.

Some compounds with recorded IC50:
Using the record for Cn1cc(S(=O)(=O)N2CCC(Nc3ncc(C#N)c(N(C4CCCC4)C4CC4)n3)CC2)cn1 [Compound 82] , report its IC50.
0.5 to 2.5 nM

Using the record for O=S(=O)(c1ccc(C2=CCNCC2)cc1)N1CCC(Nc2ncc(C(F)(F)F)c(O[C@H]3CCOC3)n2)CC1 [Example 100] , report its IC50.
< 0.5 nM

Using the record for O=S(=O)(c1ccc(C23CCNCC2C3)cc1)N1CCC(Nc2ncc(C(F)(F)F)c(O[C@H]3CCOC3)n2)CC1 (some centres unmarked) [Compound 159] , report its IC50.
0.5 to 2.5 nM

Dear colleague, could you please provide IC50 for the compounds listed below?
1. O=S(=O)(c1ccc(C2=CCCNC2)cc1)N1CCC(Nc2ncc(C(F)(F)F)c(O[C@H]3CCOC3)n2)CC1 [Example 112]
2. N#Cc1cnc(NC2CCN(S(=O)(=O)c3ccc(-c4cn[nH]c4)cc3)CC2)nc1N[C@H]1CCOC1 [Compound 105]
3. C[C@@H]1CN(c2ccc(S(=O)(=O)N3CCC(Nc4ncc(C(F)(F)F)c(O[C@H]5CCOC5)n4)CC3)cc2)C[C@@H](C)N1 [Compound 208]
4. Cn1cc(S(=O)(=O)N2CC[C@@H](Nc3ncc(C(F)(F)F)c(O[C@H]4CCOC4)n3)[C@@H](F)C2)cn1 [Compound 128]
5. Cn1cc(S(=O)(=O)N2CCC(Nc3ncc(C#N)c(O[C@@H]4CCOC4)n3)CC2)cn1 [Compound 89]

< 0.5 nM
0.5 to 2.5 nM
0.5 to 2.5 nM
10 to 50 nM
10 to 50 nM

Dear colleague, could you please provide IC50 for the compounds listed below?
1. Cn1cc(S(=O)(=O)N2CCC(Nc3ncc(C(F)(F)F)c(O[C@H]4CCOC4)n3)[C@@H](F)C2)cn1 (some centres unmarked) [Compound 120]
2. CC(C)Nc1nc(NC2CCN(S(C)(=O)=O)CC2)ncc1C#N [Compound 28]
3. Cn1cc(S(=O)(=O)N2CCC(Nc3ncc(C(F)(F)F)c(O[C@H]4CCOC4)n3)CC2)cn1 [Example 7]
4. C[C@H](CO)Nc1nc(NC2CCN(S(=O)(=O)c3cnn(C)c3)CC2)ncc1C#N [Compound 70]
5. Cn1cc(S(=O)(=O)N2CCC(Nc3ncc(C(F)(F)F)c(N[C@@H]4CCC[C@H]4O)n3)CC2)cn1 [Compound 54]
6. Cn1cc(-c2ccc(S(=O)(=O)N3CCC(Nc4ncc(C#N)c(NC5(C)CCOC5)n4)CC3)cc2)cn1 (centres unmarked) [Compound 150]
7. N#Cc1cnc(NC2CCN(S(=O)(=O)c3ccc(N4CCNCC4)cc3)CC2)nc1NC1CCCC1 [Compound 90]
8. Cn1cc(-c2ccc(S(=O)(=O)N3CCC(Nc4ncc(C#N)c(N[C@H]5CCC[C@H]5O)n4)CC3)cc2)cn1 [Compound 51]

["2.5 to 10 nM", "10 to 50 nM", "0.5 to 2.5 nM", "10 to 50 nM", "0.5 to 2.5 nM", "0.5 to 2.5 nM", "0.5 to 2.5 nM", "0.5 to 2.5 nM"]
